study.system: CB1 receptor (Homo sapiens, UniProt P21554)
Construct: Perkin Elmer (CB1-CHO cells)
Sequence (P21554 whole entry): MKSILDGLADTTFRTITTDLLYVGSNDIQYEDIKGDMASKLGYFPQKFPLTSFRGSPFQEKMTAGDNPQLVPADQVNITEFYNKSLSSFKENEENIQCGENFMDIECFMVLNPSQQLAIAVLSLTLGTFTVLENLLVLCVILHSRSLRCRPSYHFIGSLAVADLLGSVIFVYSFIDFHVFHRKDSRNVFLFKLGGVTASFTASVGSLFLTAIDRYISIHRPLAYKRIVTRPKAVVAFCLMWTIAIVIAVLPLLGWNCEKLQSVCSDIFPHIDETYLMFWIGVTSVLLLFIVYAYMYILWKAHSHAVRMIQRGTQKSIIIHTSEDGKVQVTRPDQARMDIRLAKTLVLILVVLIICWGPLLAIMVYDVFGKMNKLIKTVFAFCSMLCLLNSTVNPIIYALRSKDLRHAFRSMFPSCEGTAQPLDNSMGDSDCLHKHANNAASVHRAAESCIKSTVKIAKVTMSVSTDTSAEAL
measurement.notes: CB1 cAMP antagonist assay (LANCE Ultra cAMP kit)
condition.notes: CHO cells stably expressing the CB1 receptor; forskolin and agonist CP55940 at EC90
// reported IC50 for each item listed

Known IC50 results, listed for orientation:
CC(c1ccc(C(N)=O)cc1)n1c(=O)n(C[C@@H](O)CO)c(=O)c2c1nc(-c1ccccc1Cl)n2-c1ccc(Cl)cc1 (stereo in doubt) = < 0.1 µM
NC(=O)Cn1c(=O)c2c(nc(-c3ccccc3Cl)n2-c2ccc(Cl)cc2)n(Cc2ccc(CC3COCCO3)cc2)c1=O (stereo not drawn) = < 0.1 µM

As a next step, examine the compound that follows.
# input Can you share its IC50? I mean this compound: `CC(=O)N1CCC(Cn2c(=O)n(C[C@@H](O)CO)c(=O)c3c2nc(-c2ccccc2Cl)n3-c2ccc(Cl)cc2)CC1`
# output 0.1 to 1 µM

====

study.system: CB1 receptor (Homo sapiens, UniProt P21554)
Construct: Perkin Elmer (CB1-CHO cells)
measurement.notes: CB1 cAMP antagonist assay (LANCE Ultra cAMP kit)
condition.notes: CHO cells stably expressing the CB1 receptor; forskolin and agonist CP55940 at EC90
pIC50: −log10 of the molar value.
// reported pIC50 for each item listed

C[C@@H](Cn1c(=O)c2c(nc(-c3ccccc3Cl)n2-c2ccc(Cl)cc2)n(CC2CCS(=O)(=O)CC2)c1=O)C(N)=O = > 7.00
C[C@H](CO)NC(=O)c1ccc(Cn2c(=O)n(C)c(=O)c3c2nc(-c2ccccc2Cl)n3-c2ccc(Cl)cc2)nc1 = > 7.00
CC(=O)N1CCC(Cn2c(=O)n(C(C)C(N)=O)c(=O)c3c2nc(-c2ccccc2Cl)n3-c2ccc(Cl)cc2)CC1 (stereo not drawn) = 6.00 to 7.00
NC(=O)Cn1c(=O)c2c(nc(-c3ccccc3Cl)n2-c2ccc(Cl)cc2)n(CC2(O)CCOCC2)c1=O = > 7.00
NC(=O)Cn1c(=O)c2c(nc(-c3ccc(F)cc3F)n2-c2ccc(Cl)cc2)n(CC2CCS(=O)(=O)CC2)c1=O = 6.00 to 7.00
COCCOCc1ccc(Cn2c(=O)n(C)c(=O)c3c2nc(-c2ccccc2Cl)n3-c2ccc(Cl)cc2)cc1 = > 7.00
Cn1nccc1-c1nc2c(c(=O)n(C)c(=O)n2Cc2ccc(S(N)(=O)=O)cn2)n1-c1ccc(Cl)cc1 = 6.00 to 7.00
C[C@H](C(N)=O)n1c(=O)c2c(nc(-c3ccccc3Cl)n2-c2ccc(Cl)cc2)n(C2CCOCC2)c1=O = 6.00 to 7.00

As a next step, examine the compound that follows.
# input Can you share its pIC50? I mean this compound: NC(=O)Cn1c(=O)c2c(nc(-c3ccccc3Cl)n2-c2ccc(Cl)cc2)n(CC2COCCO2)c1=O (stereo in doubt) [Compound 128]
# output 6.00 to 7.00
